The values you see were collected from ChEMBL document CHEMBL5376025.

Test system: HCT-116
Protocol: Antiproliferative activity against human HCT-116 cells assessed as inhibition of cell growth at 50 uM measured after 48 hrs by MTT assay
Format: functional, cell-based
Condition Info: HCT-116, 48 h
Property Label: IC50

Entry under test: `[O-][n+]1ccccc1C(c1ccc(OCc2cn(CCN3CCCCC3)nn2)cc1)c1ccc(OCc2cn(CCN3CCCCC3)nn2)cc1` . Its IC50 was > 50 µM

* * *

System: HT-29
Protocol: Antiproliferative activity against human HT-29 cells assessed as inhibition of cell growth at 50 uM measured after 48 hrs by MTT assay
Assay type: functional, cell-based
Condition Info: HT-29, 48 h
pIC50: −log10 of the molar value.
Property Label: pIC50

Reported pIC50 ( `[O-][n+]1ccccc1C(c1ccc(OCc2cn(CCN3CCCCC3)nn2)cc1)c1ccc(OCc2cn(CCN3CCCCC3)nn2)cc1` ) = < 4.30

* * *

Test system: L929
Protocol: Cytotoxicity against mouse L929 cells assessed as reduction in cell viability at 0.78 to 100 uM measured after 24 hrs by MTT colorimetric assay
Type: toxicity, cell-based
Condition Info: l929, 24 h, dose 0.78-100 µM
Property Label: Activity

L929 Activity of C#CCOc1ccc(C(c2ccc(OCc3cn(Cc4ccccc4)nn3)cc2)c2ccccn2)cc1 (stereo unspecified) is Non-Toxic

Here C#CCOc1ccc(C(c2ccc(OCc3cn(CCN4CCCCC4)nn3)cc2)c2ccccn2)cc1 (stereo unspecified) was tested on L929, and its Activity came to Non-Toxic

Lab entry: L929 assay, molecule `c1ccc(C(c2ccc(OCc3cn(CCN4CCCCC4)nn3)cc2)c2ccc(OCc3cn(CCN4CCCCC4)nn3)cc2)nc1` , Activity = Non-Toxic

Let me check: C#CCOc1ccc(C(c2ccc(OCc3cnnn3CCCN)cc2)c2ccccn2)cc1 (stereo unspecified) , system L929, measured Activity is Non-Toxic

Quick one: give me Activity for each item below, same order please.
1. c1ccc(Cn2cc(COc3ccc(C(c4ccc(OCc5cn(Cc6ccccc6)nn5)cc4)c4ccccn4)cc3)nn2)cc1
2. c1ccc(C(c2ccc(OCc3cn(C[C@H]4CCCN4)nn3)cc2)c2ccc(OCc3cn(C[C@H]4CCCN4)nn3)cc2)nc1

1: Non-Toxic; 2: Non-Toxic
